# EXPERIMENT_DESCRIPTION: Saturation mutagenesis of SEQ ID NO:109: dicamba decarboxylation activity of point mutants (CO2 released), fold of backbone (Tables 7, 8, Megatable 1)
# EXPERIMENTAL_SETUP: decarboxylation activity (CO2 released) of point mutant vs unmutated backbone protein; backbone SEQ ID NO: 109
QUANTITY_MEASURED: Fold Activity (fold)
Kindly provide the numeric value in fold only, without the unit symbol.

Fill in: Fold Activity of 151 (protein, Dicamba decarboxylase variant) MAQGKVALEEHFAIPETLQDSAGFVPGDYWKELQHRLLDIQDTRLKLMDAHGIETMILSLAAPAVQAIPDRRKAIEIARRANDFLAEECAKRPDRFLAFAALPLQDPDAATEELQRCVNDLGFVGALVNGFSQEGDGQTPLYYDLPQYRPFWGEVEKLDVPFYLHPRNPLPQDSRIYDGHPWLLGPTWAFAQETAVHALRLMASGLFDEHPRLNIILGHMGEGLPYMMYRIDHRIAWVHQPPRYPAKRRFMDYFNENFHITTSGNFRTQTLIDAILEIGADRILFSTDWPFENIDHAADWFNATSIAEADRVKIGRTNARRLFKLDGD is ___
1.9
